B1: NELF-E aptamer (parent)
chain: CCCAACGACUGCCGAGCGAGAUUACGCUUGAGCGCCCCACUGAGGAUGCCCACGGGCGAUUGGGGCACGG

- Variants of: B1
- Protocol Details: HiTS-RAP
- Measurement Setup: with NELF-E (Drosophila)
Metric Name: Kd (nM)
Give a bare numeral; the unit nM is implied.

Consider the worked cases shown below.
[[record]]
mutation_label = "C9G C50G"
endpoint_value = 7.4

[[record]]
mutation_label = "U22G U60A"
endpoint_value = 9.43

[[record]]
mutation_label = "A5U G55U"
endpoint_value = 8.79

[[record]]
mutation_label = "G11U A24G"
endpoint_value = 5.82

[[record]]
mutation_label = "U10G U28C"
endpoint_value = 8.85


[ask] Quote Kd reported for A4U G7U please.
[reply] 6.61

[ask] Quote Kd reported for G56C please.
[reply] 37.4
